Here, molecules appear alongside pKi reported for UniProtKB P41146 in the literature.
Sequence (P41146 whole entry): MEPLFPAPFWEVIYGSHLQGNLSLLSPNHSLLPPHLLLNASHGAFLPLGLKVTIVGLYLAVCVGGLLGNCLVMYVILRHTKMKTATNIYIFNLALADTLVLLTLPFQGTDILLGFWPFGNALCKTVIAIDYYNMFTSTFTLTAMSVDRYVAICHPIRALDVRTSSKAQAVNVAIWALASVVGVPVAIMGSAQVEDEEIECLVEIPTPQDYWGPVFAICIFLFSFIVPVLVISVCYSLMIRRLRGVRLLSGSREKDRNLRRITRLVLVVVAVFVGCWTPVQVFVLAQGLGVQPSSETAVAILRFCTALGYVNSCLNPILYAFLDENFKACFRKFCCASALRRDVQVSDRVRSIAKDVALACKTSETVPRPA
Here pKi is given on a logarithmic scale as minus log10 of the concentration in mol/L.

Consider the worked cases shown below.
>>> observed_measurement("OC1(c2ccc(Cl)cc2)CCN(CCC(c2ccccc2)c2ccccc2)CC1")
6.43
>>> observed_measurement("COC(=O)C(CCN1CCC(O)(c2cccc(C(F)(F)F)c2)CC1)(c1ccccc1)c1ccccc1")
7.11
>>> observed_measurement("NC(=O)C1(C2CCCCN2)C[C@H]2CC[C@H](C1)N2C(c1ccccc1Cl)c1ccccc1Cl (relative stereo)")
7.77

Notebook entry, UniProtKB P41146 assay: pKi of N[C@@H](c1cccc(C(F)(F)F)c1)[C@@H]1CCN1C(c1ccccc1)c1ccccc1 (stereo in doubt; (+)-1a) = ?
6.63

Notebook entry, UniProtKB P41146 assay: pKi of N[C@@H](c1cc(F)cc(F)c1)[C@@H]1CCN1C(c1ccccc1)c1ccccc1 = ?
6.98

Notebook entry, UniProtKB P41146 assay: pKi of CCCCC(c1cccc(F)c1)N1CC[C@H]1[C@H](N)c1cccc(Cl)c1 (stereo partly drawn) = ?
7.59
